# System Tested: full-length native BPV1 E2 trans-activator protein (bovine papillomavirus type 1 (BPV1), UniProt P03122)
# Measurement Protocol: cell-based or functional assay
Observed Property: Repression as % decrease in trans-activation by E2 (%)
A number alone suffices; assume %.

{"columns": ["Binder", "Unit Label", "Measured Value"],
 "data": [
  ["BPV1 E2 mutant 340G in the E2 repressor format (C-terminal 249 amino acids) (other) MAGAGRIYYSRFGDEAARFSTTGHYSVRDQDRVYAGVSSTSSDFRDRPDGVWVASEGPEGDPAGKEAEPAQPVSSLLGSPACGPIRAGLGWVRDGPRSHPYNFPAGSGGSILRSSSTPVQGTVPVDLASRQEEEEQSPDSTEEEPVTLPRRTTNDGFHLLKAGGSCFALISGTANQVKGYRFRVKKNHRHRYENCTTTWFTVADNGAERQGQAQILITFGSPSQRQDFLKHVPLPPGMNISGFTASLDF", "%", 91.7],
  ["BPV1 E2 mutant 399I in the E2 repressor format (C-terminal 249 amino acids) (other) MAGAGRIYYSRFGDEAARFSTTGHYSVRDQDRVYAGVSSTSSDFRDRPDGVWVASEGPEGDPAGKEAEPAQPVSSLLGSPACGPIRAGLGWVRDGPRSHPYNFPAGSGGSILRSSSTPVQGTVPVDLASRQEEEEQSPDSTEEEPVTLPRRTTNDGFHLLKAGGSCFALISGTANQVKCYRFRVKKNHRHRYENCTTTWFTVADNGAERQGQAQILITFGSPSQRQDFLKHVPLPPGINISGFTASLDF", "%", 86.9]
]}

Could you tell me which Repression as % decrease in trans-activation by E2 is on file for BPV1 E2 mutant 344L in the E2 repressor format (C-terminal 249 amino acids) (other) MAGAGRIYYSRFGDEAARFSTTGHYSVRDQDRVYAGVSSTSSDFRDRPDGVWVASEGPEGDPAGKEAEPAQPVSSLLGSPACGPIRAGLGWVRDGPRSHPYNFPAGSGGSILRSSSTPVQGTVPVDLASRQEEEEQSPDSTEEEPVTLPRRTTNDGFHLLKAGGSCFALISGTANQVKCYRFLVKKNHRHRYENCTTTWFTVADNGAERQGQAQILITFGSPSQRQDFLKHVPLPPGMNISGFTASLDF ? 82.6

The measured values listed here are drawn from patent US5616559.
